Hello, the source for this data is PubChem BioAssay (NCI), in case you need it.

# Test system: LOX IMVI melanoma
# test-summary: NCI tumour cell line growth inhibition, 48 h
# reported TGI; entries follow

These recorded examples may help you get a feel for the data.
O=C(O)CCC(=O)Oc1ccc(O)c2c1CCCC2=O ... > 100 µM
CCOC(=O)c1cc(C2=CCNC2=O)c(-c2cc(C)no2)[nH]1 ... > 100 µM
COC(O)C(=O)c1c2c(cc3c1CCC3)CCC2 (stereo not given) ... > 100 µM
CC(C)(C)CNCCCNc1ccc(Cl)cc1 ... 46.9 µM
O=C1C[C@@H]2[C@@H](CCC23CCCC3)N1 ... > 100 µM
Fc1ccc(Oc2nc3ccccc3nc2-c2ccccc2)cc1 ... > 100 µM
O=C(CSc1nnc(Cc2ccccc2)o1)Nc1ccc(Cl)cc1[N+](=O)[O-] ... 26.3 µM
Cc1cc(N(CCC#N)CCC#N)ccc1/C=C1N=C(/C=C/c2ccccc2)N(c2ccc(S(N)(=O)=O)cc2)C\1=O ... > 100 µM
COc1ccc(Cc2cc(OC)c(OC)c(OC)c2)cc1 ... > 89.7 µM
C=C1C(=O)O[C@@H]2C[C@@H]1CC[C@]1(C)O[C@H]1CC/C(C)=C/CC[C@@]2(C)O ... 4.85 µM

input: Given the entry `Cc1ccc(/C=C(/C#N)n2nnc3ncccc32)cc1` , report its measured TGI.
output: 11.3 µM

input: Dear colleague, I am looking for the recorded TGI of the following molecule: `COC(=O)CNC(=O)CNC(=O)CSc1nnc(COc2ccc(Cl)cc2)n1-c1ccccc1`
output: 57.7 µM

input: Looking for the measured TGI of CCC1(OC(=O)CNC)C(=O)OCc2c1cc1n(c2=O)Cc2cc3ccccc3nc2-1 (stereo not given) , can you help?
output: 0.137 µM

###

# Tested on: NCI/ADR-RES ovarian
# test-summary: NCI tumour cell line growth inhibition, 48 h
Overview of reported GI50 across a group of compounds:

In the examples that follow, each entry is paired with its recorded GI50.
Cc1ccc(/C=C(/C#N)n2nnc3ncccc32)cc1 ... 1.37 µM
O=C(NCCCl)NCCN1c2nc3ccccc3cc2Sc2cc3ccccc3nc21 ... 1.61 µM
COc1ccc(CN2C(=O)/C(=C\C(=O)c3ccc(OCCN4CCCC4)cc3)c3ccccc32)cc1 ... 5.71 µM
[N-]=[N+]=NCCCn1c2c(c3ccc([N+](=O)[O-])cc3c1=O)C(=O)c1cc(I)ccc1-2 ... 4.17 µM
COC1=CC(c2ccc[nH]2)=N/C1=C\c1[nH]c(C)c(C(=O)Oc2ccccc2)c1C ... 0.185 µM
COc1ccc(C2CC(c3ccccc3)=NN2C(=O)c2cc(OC)c(OC)c(OC)c2)cc1O (stereo not drawn) ... 0.552 µM
CON=C1C[C@]2(C[C@@H]3C[C@@H](C/C=C(\C)C[C@@H](C)/C=C/C=C4\CO[C@@H]5[C@H](O)C(C)=C[C@@H](C(=O)O3)[C@]45O)O2)O[C@H](/C(C)=C/C(C)C)[C@H]1C ... 14.4 µM
Clc1ccc(-c2nc3c(-c4ccccc4)nc(-c4ccccc4)cn3c2-c2ccc(Cl)cc2)cc1 ... > 100 µM

input: Please look up its GI50: `CCC1=C[C@@H]2CN(C1)Cc1c([nH]c3ccccc13)[C@@](C(=O)OC)(c1cc3c(cc1OC)N(C)[C@H]1[C@@](O)(C(=O)OC)[C@H](OC(C)=O)[C@]4(CC)C=CCN5CC[C@]31[C@@H]54)C2`
output: 1.58 µM

input: Value lookup for GI50; key = COc1cc(N2CCN(C(C)C)CC2)ccc1Nc1nc(Nc2ccc(F)cc2C(=O)NCC(O)CO)c2cc[nH]c2n1 (stereo not drawn)
output: > 25 µM

input: So what does the record say about GI50 for CC(C)(C)[Si](C)(C)OC1[C@@H](O[Si](C)(C)C(C)(C)C)[C@@H](CNC(=O)NC(=O)NC(=O)CCl)O[C@H]1n1cnc2c(NC(=O)Nc3ccccc3)ncnc21 (stereo partly drawn) ?
output: 6.45 µM

input: # lookup: GI50 of `CCCCOC(=O)/C=C\C(=O)NC(N)=O`
output: 27 µM

input: Bench note: what GI50 did COc1ccc2nc3cc(Cl)ccc3c(NCCNCC(O)CO)c2c1 (stereo not drawn) show?
output: 16.2 µM
